Catalogue of pIC50 values
# Target desc: IKKε (Homo sapiens)
# Assay procedure: IKKε biochemical assay
# Settings: 10 point 1:4 dose response, 30 uM top concentration, 90 min at 25° C., LabChip EZ Reader II; read-out: IKKε_IC50
pIC50: −log10 of the molar value.

Task: Data request, read-out pIC50, for COc1cc(Nc2nccc(-c3ccc(O[C@H]4CCN(C(=O)[C@@H](C)O)CC4(F)F)c(C#N)c3)n2)ccn1 [Example 230]
Result: > 7.00

Task: # iterate: COc1nc(Nc2nccc(-c3ccc(OC4CCN(C(=O)C(C)O)CC4(F)F)c(C#N)c3)n2)ccc1N1CCN(C2COC2)CC1 (stereo in doubt) [Example 261]
Result: > 7.00

Task: Entry to check: N#Cc1cc(-c2ccnc(Nc3ccc(N4CCN(C5COC5)CC4)cn3)n2)ccc1OC1CCOCC1 [Example 165]
Result: > 7.00

Task: What do we get for C[C@H](O)C(=O)N1CC(Oc2ccc(-c3ccnc(Nc4ccc(N5CCN(C6COC6)CC5)cc4)n3)cc2C#N)C1 [Example 172] ?
Result: 6.00 to 7.00

Task: Field entry: CN1CCN(c2ccc(Nc3nccc(-c4ccc(OC5CCOCC5)c(C#N)c4)n3)cc2)CC1 [Example 163]
Result: > 7.00

New cases:
Task: Which pIC50 reading was recorded for the molecule COc1nc(Nc2nccc(-c3ccc(O[C@@H]4CCN(C(=O)[C@H](C)O)CC4(F)F)c(C#N)c3)n2)ccc1N1CCN(C2COC2)CC1 [Example 122] ?
Result: > 7.00

* * *

# Target desc: IKKε (Homo sapiens)
# Sequence (Q14164 1-716): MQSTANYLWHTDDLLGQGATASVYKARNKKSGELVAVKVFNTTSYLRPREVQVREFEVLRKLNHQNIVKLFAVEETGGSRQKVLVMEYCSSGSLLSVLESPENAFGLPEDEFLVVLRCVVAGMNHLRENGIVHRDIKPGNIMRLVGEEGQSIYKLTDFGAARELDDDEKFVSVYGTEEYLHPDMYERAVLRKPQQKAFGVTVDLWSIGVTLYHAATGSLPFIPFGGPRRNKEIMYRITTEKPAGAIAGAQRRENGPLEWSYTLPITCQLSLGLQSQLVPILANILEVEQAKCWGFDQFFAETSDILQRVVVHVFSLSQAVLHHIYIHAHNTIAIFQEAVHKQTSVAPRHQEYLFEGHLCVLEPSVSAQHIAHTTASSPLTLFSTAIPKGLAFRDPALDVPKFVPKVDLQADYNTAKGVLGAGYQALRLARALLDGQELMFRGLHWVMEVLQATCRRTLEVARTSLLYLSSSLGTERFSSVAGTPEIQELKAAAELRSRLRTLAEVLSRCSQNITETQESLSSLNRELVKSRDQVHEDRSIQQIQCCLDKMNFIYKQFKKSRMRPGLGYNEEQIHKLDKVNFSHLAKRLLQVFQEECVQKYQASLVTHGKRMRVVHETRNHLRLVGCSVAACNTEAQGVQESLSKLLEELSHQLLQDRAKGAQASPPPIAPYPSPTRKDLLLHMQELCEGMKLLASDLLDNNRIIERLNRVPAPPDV
# Assay procedure: IKKε biochemical assay
# Settings: 10 point 1:4 dose response, 30 uM top concentration, 90 min at 25° C., LabChip EZ Reader II; read-out: IKKε_IC50
Structures can show the parent of a compound that is named as a salt.
Reported endpoint: IC50

Task: Given the entry COc1nc(Nc2nccc(-c3ccc(OC4CCN(C(=O)[C@@H](C)O)CC4(F)F)c(C#N)c3)n2)ccc1C1CCN(C2COC2)CC1 (stereo partly shown) , report its measured IC50.
Result: < 100 nM

Task: Lookup COc1nc(Nc2nccc(-c3ccc(OC4CCN(C)C4)c(C#N)c3)n2)ccc1C(=O)N(C)C (stereo not shown) [Example 70, hydrochloride]
Result: 100 to 1000 nM

Task: COc1cc(Nc2nccc(-c3ccc(OC4CCOCC4)c(C#N)c3)n2)ncc1C(=O)N(C)C , same question.
Result: 100 to 1000 nM

Continuing:
Task: Looking for the measured IC50 of COc1nc(Nc2nccc(-c3ccc(OC4CCNCC4(F)F)c(C#N)c3)n2)ccc1C1CCN(C)CC1 (stereo not shown) , can you help?
Result: < 100 nM

Task: Now give it for N#Cc1cc(-c2ccnc(Nc3ccccc3)n2)ccc1OC1CCN(C(=O)[C@@H](O)CO)CC1(F)F (stereo partly shown) too.
Result: < 100 nM

Task: Now try COc1nc(Nc2nccc(-c3ccc(OC4CCNCC4(F)F)c(C#N)c3)n2)ccc1N1CCN(C)CC1 (stereo not shown) .
Result: < 100 nM

Task: Ok, now COc1nc(Nc2nccc(-c3ccc(O[C@@H]4CCN(C(=O)[C@@H](C)O)C[C@@H]4F)c(C#N)c3)n2)ccc1N1CCN(C2COC2)CC1
Result: < 100 nM

Task: Now the same for C[C@@H](O)C(=O)N1CCC(Oc2ccc(-c3ccnc(Nc4cccc(C5CCN(C6COC6)CC5)c4)n3)cc2C#N)C(F)(F)C1 (stereo partly shown)
Result: < 100 nM

Task: Next compound: COc1nc(Nc2nccc(-c3ccc(OC4CCOCC4)c(C#N)c3)n2)ccc1N1CCN(C2COC2)CC1
Result: < 100 nM

Task: Now try COc1cc(Nc2nccc(-c3ccc(OC4CCN(C(=O)[C@H](C)O)CC4(F)F)c(C#N)c3)n2)cnc1N1CCN(C2COC2)CC1 (stereo partly shown) .
Result: < 100 nM
